- assaySystem: PADI4 (Homo sapiens)
- Construct: His6; made in house
- assayNotes: COLDER inhibition assay, BAEE substrate, with or without 1 h preincubation
- Format: biochemical
- testContext: peptide 3 µM, T=0; read-out: PADI4 activity normalised to 0.1% DMSO
Where a SMILES comes first, the peptide text is derived from it. Bridges are numbered along the chain shown (N, C = ends). [ ]: non-standard residue; d: D form. Orn(fluoroacetimidoyl) = N=C(CF)NCCC[C@H](N)C(=O)O
measuredParameter: remaining activity at 3 µM (%)
# output: bare number, implied unit %

compound	assaySystem	unitLabel	remaining activity at 3 µM
CC[C@H](C)[C@@H]1NC(=O)[C@@H](Cc2ccc(O)cc2)NC(=O)CSC[C@@H](C(=O)NCC(N)=O)NC(=O)[C@H](CO)NC(=O)[C@H](CCCNC(=N)CF)NC(=O)[C@H](CC(=O)O)NC(=O)[C@H](CCCNC(=N)CF)NC(=O)[C@H](CC(C)C)NC(=O)CNC(=O)[C@H](Cc2c[nH]c3ccccc23)NC1=O [cP4_2, yIWGL(2)D(2)SCG] ({CH2CO}-[dY]IWGL[Orn(fluoroacetimidoyl)]D[Orn(fluoroacetimidoyl)]SCG-NH2; thioether N-10)	PADI4 (Homo sapiens)	%	105

Next compound, remaining activity at 3 µM to be filled in.
# return recorded remaining activity at 3 µM for input N=C(N)NCCC[C@@H]1NC(=O)[C@H](Cc2ccc(O)cc2)NC(=O)[C@H](Cc2c[nH]cn2)NC(=O)[C@H](CCCNC(=N)CF)NC(=O)[C@H](CC(=O)O)NC(=O)[C@H](CCCNC(=N)N)NC(=O)[C@@H](Cc2ccc(O)cc2)NC(=O)CSC[C@@H](C(=O)NCC(N)=O)NC(=O)[C@H](Cc2ccc(O)cc2)NC(=O)[C@H](CCCCN)NC(=O)[C@@H]2CCCN2C(=O)[C@H](Cc2c[nH]cn2)NC1=O [PADI4_3_H4(2), yRD(2)HYRHPKYCG] ({CH2CO}-[dY]RD[Orn(fluoroacetimidoyl)]HYRHPKYCG-NH2; thioether N-12)
41.2

---

- assaySystem: PADI4 (Homo sapiens)
- Construct: His6; made in house
- assayNotes: COLDER inhibition assay, BAEE substrate, with or without 1 h preincubation
- Format: biochemical
- testContext: peptide 0.03 µM, T=0; read-out: PADI4 activity normalised to 0.1% DMSO
Where a SMILES comes first, the peptide text is derived from it. Bridges are numbered along the chain shown (N, C = ends). [ ]: non-standard residue; d: D form. Orn(fluoroacetimidoyl) = N=C(CF)NCCC[C@H](N)C(=O)O
compounds and their reported remaining activity at 0.03 µM
# output: bare number, implied unit %

compound	unitLabel	reported
N=C(N)NCCC[C@@H]1NC(=O)[C@H](CCCNC(=N)CF)NC(=O)[C@H](CC(=O)O)NC(=O)[C@H](Cc2ccc(O)cc2)NC(=O)[C@H](CCCCN)NC(=O)[C@H](CO)NC(=O)[C@@H](Cc2ccc(O)cc2)NC(=O)CSC[C@@H](C(=O)NCC(N)=O)NC(=O)[C@H](CC(=O)O)NC(=O)[C@H](CCCNC(=N)N)NC(=O)[C@@H]2CCCN2C(=O)[C@H](CO)NC1=O [cP4_4, ySKYD(2)RSPRDCG] ({CH2CO}-[dY]SKYD[Orn(fluoroacetimidoyl)]RSPRDCG-NH2; thioether N-12)	%	93.5
N=C(N)NCCC[C@@H]1NC(=O)[C@H](Cc2ccc(O)cc2)NC(=O)[C@H](Cc2c[nH]cn2)NC(=O)[C@H](CCCNC(=N)CF)NC(=O)[C@H](CC(=O)O)NC(=O)[C@H](CCCNC(=N)N)NC(=O)[C@@H](Cc2ccc(O)cc2)NC(=O)CSC[C@@H](C(=O)NCC(N)=O)NC(=O)[C@H](Cc2ccc(O)cc2)NC(=O)[C@H](CCCCN)NC(=O)[C@@H]2CCCN2C(=O)[C@H](Cc2c[nH]cn2)NC1=O [PADI4_3_H4(2), yRD(2)HYRHPKYCG] ({CH2CO}-[dY]RD[Orn(fluoroacetimidoyl)]HYRHPKYCG-NH2; thioether N-12)	%	102

Next compound, remaining activity at 0.03 µM to be filled in.
Look up PADI4 (Homo sapiens) data: remaining activity at 0.03 µM of CC[C@H](C)[C@@H]1NC(=O)[C@@H](Cc2ccc(O)cc2)NC(=O)CSC[C@@H](C(=O)NCC(N)=O)NC(=O)[C@H](CO)NC(=O)[C@H](CCCNC(=N)CF)NC(=O)[C@H](CC(=O)O)NC(=O)[C@H](CCCNC(=N)CF)NC(=O)[C@H](CC(C)C)NC(=O)CNC(=O)[C@H](Cc2c[nH]c3ccccc23)NC1=O [cP4_2, yIWGL(2)D(2)SCG] ({CH2CO}-[dY]IWGL[Orn(fluoroacetimidoyl)]D[Orn(fluoroacetimidoyl)]SCG-NH2; thioether N-10) , then report it.
107

---

- assaySystem: PADI4 (Homo sapiens, UniProt Q9UM07)
- Construct: His6; made in house
- Sequence (Q9UM07 whole entry): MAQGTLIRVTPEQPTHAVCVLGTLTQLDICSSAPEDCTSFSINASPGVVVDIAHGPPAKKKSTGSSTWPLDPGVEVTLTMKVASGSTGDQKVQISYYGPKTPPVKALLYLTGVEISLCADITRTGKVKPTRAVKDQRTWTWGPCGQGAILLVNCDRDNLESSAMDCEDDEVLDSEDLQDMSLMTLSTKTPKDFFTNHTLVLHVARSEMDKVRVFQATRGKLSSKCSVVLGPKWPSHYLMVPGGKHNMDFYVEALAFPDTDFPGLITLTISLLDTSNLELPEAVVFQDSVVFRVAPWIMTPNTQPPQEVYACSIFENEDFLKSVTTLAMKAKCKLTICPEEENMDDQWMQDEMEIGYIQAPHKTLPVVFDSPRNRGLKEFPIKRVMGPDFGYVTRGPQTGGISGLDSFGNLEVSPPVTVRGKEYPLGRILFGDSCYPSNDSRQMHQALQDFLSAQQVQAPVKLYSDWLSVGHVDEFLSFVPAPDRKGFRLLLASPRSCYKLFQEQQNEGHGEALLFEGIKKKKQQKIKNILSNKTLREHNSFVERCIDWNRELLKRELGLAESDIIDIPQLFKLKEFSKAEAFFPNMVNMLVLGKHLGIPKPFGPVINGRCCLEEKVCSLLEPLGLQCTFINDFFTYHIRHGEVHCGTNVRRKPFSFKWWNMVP
- assayNotes: COLDER inhibition assay, BAEE substrate, with or without 1 h preincubation
- Assay type: biochemical
- testContext: COLDER, 1 h preincubation of peptide and PADI4, 10 mM CaCl2; read-out: IC50 Values 1 h preincubation
*1 amine or outer side, *2 acyl side, *3 side chain or, on linkers, in order; H or OH if unused. Where a SMILES comes first, the peptide text is derived from it. Bridges are numbered along the chain shown (N, C = ends). [ ]: non-standard residue; d: D form. Orn(fluoroacetimidoyl) = N=C(CF)NCCC[C@H](N)C(=O)O; X1 = N=C(CCl)NCCC[C@H](N[*:1])C(=O)[*:2]
compounds and their reported pIC50
Lab note: report pIC50 as minus log10 of the concentration in molar units, number only.

compound	assaySystem	pIC50
CC(C)C[C@@H]1NC(=O)[C@H](CCCCN)NC(=O)[C@H](CO)NC(=O)[C@H](CO)NC(=O)[C@H](Cc2ccc(O)cc2)NC(=O)[C@H](Cc2c[nH]cn2)NC(=O)[C@H](CCCNC(=N)CF)NC(=O)[C@H](CC(=O)O)NC(=O)[C@H](CC(C)C)NC(=O)[C@@H](Cc2ccc(O)cc2)NC(=O)CSC[C@@H](C(=O)NCC(N)=O)NC(=O)[C@H](Cc2ccc(O)cc2)NC1=O [cP4_15, yLD(2)HYSSKLYCG] ({CH2CO}-[dY]LD[Orn(fluoroacetimidoyl)]HYSSKLYCG-NH2; thioether N-12)	PADI4 (Homo sapiens, UniProt Q9UM07)	7.28
N=C(N)NCCC[C@@H]1NC(=O)[C@H](CCCNC(=N)CCl)NC(=O)[C@H](CC(=O)O)NC(=O)[C@H](Cc2ccc(O)cc2)NC(=O)[C@H](CCCCN)NC(=O)[C@H](CO)NC(=O)[C@@H](Cc2ccc(O)cc2)NC(=O)CSC[C@@H](C(=O)NCC(N)=O)NC(=O)[C@H](CC(=O)O)NC(=O)[C@H](CCCNC(=N)N)NC(=O)[C@@H]2CCCN2C(=O)[C@H](CO)NC1=O [Cl4] ({CH2CO}-[dY]SKYD[X1]RSPRDCG-NH2; thioether N-12)	PADI4 (Homo sapiens, UniProt Q9UM07)	7.18

Next compound, pIC50 to be filled in.
# return recorded pIC50 for input N=C(N)NCCC[C@@H]1NC(=O)[C@H](Cc2ccc(O)cc2)NC(=O)[C@H](Cc2c[nH]cn2)NC(=O)[C@H](CCCNC(=N)CF)NC(=O)[C@H](CC(=O)O)NC(=O)[C@H](CCCNC(=N)N)NC(=O)[C@@H](Cc2ccc(O)cc2)NC(=O)CSC[C@@H](C(=O)NCC(N)=O)NC(=O)[C@H](Cc2ccc(O)cc2)NC(=O)[C@H](CCCCN)NC(=O)[C@@H]2CCCN2C(=O)[C@H](Cc2c[nH]cn2)NC1=O [PADI4_3_H4(2), yRD(2)HYRHPKYCG] ({CH2CO}-[dY]RD[Orn(fluoroacetimidoyl)]HYRHPKYCG-NH2; thioether N-12)
7.19

---

- assaySystem: PADI4 (Homo sapiens, UniProt Q9UM07)
- Construct: His6; made in house
- assayNotes: COLDER inhibition assay, BAEE substrate, with or without 1 h preincubation
- Assay type: biochemical
- testContext: COLDER, no preincubation of peptide and PADI4, 10 mM CaCl2; read-out: IC50 Values 0 h preincubation
pIC50: −log10 of the molar value. Where a SMILES comes first, the peptide text is derived from it. Bridges are numbered along the chain shown (N, C = ends). [ ]: non-standard residue; d: D form. Orn(fluoroacetimidoyl) = N=C(CF)NCCC[C@H](N)C(=O)O; Orn(acetimidoyl) = CC(=N)NCCC[C@H](N)C(=O)O; Cit = NC(=O)NCCC[C@H](N)C(=O)O
measuredParameter: pIC50

Worked cases, answers included:
compound	pIC50
CC[C@H](C)[C@@H]1NC(=O)[C@@H](Cc2ccc(O)cc2)NC(=O)CSC[C@@H](C(=O)NCC(N)=O)NC(=O)[C@H](CO)NC(=O)[C@H](CCCNC(=N)CF)NC(=O)[C@H](CC(=O)O)NC(=O)[C@H](CCCNC(=N)CF)NC(=O)[C@H](CC(C)C)NC(=O)CNC(=O)[C@H](Cc2c[nH]c3ccccc23)NC1=O [cP4_2, yIWGL(2)D(2)SCG] ({CH2CO}-[dY]IWGL[Orn(fluoroacetimidoyl)]D[Orn(fluoroacetimidoyl)]SCG-NH2; thioether N-10)	< 4.30
CC(=N)NCCC[C@@H]1NC(=O)[C@H](CC(=O)O)NC(=O)[C@H](Cc2ccc(O)cc2)NC(=O)[C@H](CCCCN)NC(=O)[C@H](CO)NC(=O)[C@@H](Cc2ccc(O)cc2)NC(=O)CSC[C@@H](C(=O)NCC(N)=O)NC(=O)[C@H](CC(=O)O)NC(=O)[C@H](CCCNC(=N)N)NC(=O)[C@@H]2CCCN2C(=O)[C@H](CO)NC(=O)[C@H](CCCNC(=N)N)NC1=O [Me4] ({CH2CO}-[dY]SKYD[Orn(acetimidoyl)]RSPRDCG-NH2; thioether N-12)	< 4.70

Next compound, pIC50 to be filled in.
Look up PADI4 (Homo sapiens, UniProt Q9UM07) data: pIC50 of N=C(N)NCCC[C@@H]1NC(=O)[C@H](CCCNC(N)=O)NC(=O)[C@H](CC(=O)O)NC(=O)[C@H](Cc2ccc(O)cc2)NC(=O)[C@H](CCCCN)NC(=O)[C@H](CO)NC(=O)[C@@H](Cc2ccc(O)cc2)NC(=O)CSC[C@@H](C(=O)NCC(N)=O)NC(=O)[C@H](CC(=O)O)NC(=O)[C@H](CCCNC(=N)N)NC(=O)[C@@H]2CCCN2C(=O)[C@H](CO)NC1=O [Cit4] ({CH2CO}-[dY]SKYD[Cit]RSPRDCG-NH2; thioether N-12) , then report it.
< 4.00
